Target: RIPK1 (recombinant GST-RIPK1 kinase domain, residues 1-327) (Homo sapiens (Human), UniProt Q13546)
Sequence (Q13546 1-327): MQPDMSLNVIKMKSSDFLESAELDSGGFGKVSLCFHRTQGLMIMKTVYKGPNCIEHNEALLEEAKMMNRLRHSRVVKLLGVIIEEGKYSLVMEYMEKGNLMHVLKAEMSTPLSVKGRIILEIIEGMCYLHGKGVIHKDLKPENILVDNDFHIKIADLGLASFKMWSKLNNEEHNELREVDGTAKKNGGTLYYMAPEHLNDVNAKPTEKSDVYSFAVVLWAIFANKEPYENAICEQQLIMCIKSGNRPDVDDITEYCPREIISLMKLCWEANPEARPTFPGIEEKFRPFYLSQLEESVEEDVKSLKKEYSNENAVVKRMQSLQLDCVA
Test: RIPK1-ADP-Glo Enzymatic Assay
Assay type: biochemical
Conditions: ADP-Glo; 25 nM GST-RIPK1, 300 μM ATP; assay lower limit ~25 nM; read-out: RIPK1 V0 Ec50
Documented EC50 across a set of compounds

compound	EC50
CC1CC2(CCN1c1ccnc3c(F)cnn13)O[C@@H]1CC[C@@H](c3ccccc3)N1C2=O (stereo partly shown) [Example 4.224]	< 0.025 µM
O=C1N2[C@@H](CC[C@H]2c2ccccc2)OC12CCN(c1ccc(-c3cscn3)c3ncnn13)CC2 [Example 21.19]	< 0.025 µM
O=C(c1ccoc1)N1CCC2(CC1)O[C@@H]1CC[C@@H](c3ccccc3)N1C2=O [Example 6.145]	< 0.025 µM
O=C1N2[C@@H](CC[C@H]2c2ccccc2)OC12CCN(c1ncc(-c3cocn3)cc1F)CC2 [Example 21.6]	< 0.025 µM
O=C(c1nc2ccncc2s1)N1CCC2(CC1)O[C@@H]1CC[C@@H](c3cc(F)cc(F)c3)N1C2=O [Example 6.23]	0.0964 µM
O=C(c1ccccc1OC(F)F)N1CCC2(CC1)O[C@@H]1CC[C@@H](c3cc(F)cc(F)c3)N1C2=O [Example 6.61]	0.261 µM
C#Cc1cccc(C(=O)N2CCC3(CC2)O[C@@H]2CC[C@@H](c4cc(F)cc(F)c4)N2C3=O)c1 [Example 5.25]	< 0.025 µM

---

Biological target: RIPK1 (recombinant GST-RIPK1 kinase domain, residues 1-327) (Homo sapiens (Human), UniProt Q13546)
Test: RIPK1-ADP-Glo Enzymatic Assay
Assay type: biochemical
Conditions: ADP-Glo; 25 nM GST-RIPK1, 300 μM ATP; assay lower limit ~25 nM; read-out: RIPK1 V0 Ec50
pEC50: −log10 of the molar value. Structures can show the parent of a compound that is named as a salt.
metric: pEC50

molecule	reading qualifier	reported
O=C(c1cnc2snnc2c1)N1CCC2(CC1)O[C@@H]1CC[C@@H](c3cc(F)cc(F)c3)N1C2=O	=	6.68
COc1nc(N2CCC3(CC2)O[C@@H]2CC[C@@H](c4cc(F)cc(F)c4)N2C3=O)ncc1C	=	6.83
CCOc1ncccc1C(=O)N1CCC2(CC1)O[C@@H]1CC[C@@H](c3cc(F)cc(F)c3)N1C2=O	=	6.06
N#Cc1cscc1[C@@H]1CC[C@H]2OC3(CCN(C(=O)c4ccccc4)CC3)C(=O)N21	=	6.68
O=C1N2[C@@H](CC[C@H]2c2ccccc2)OC12CCN(c1ccc(-c3nnc(C(F)(F)F)o3)cn1)CC2	=	6.84
COc1nc(N2CCC3(CC2)O[C@@H]2CC[C@@H](c4cc(F)cc(F)c4)N2C3=O)ncc1Cl	=	7.41
CC(C)OC(=O)c1ccc(N2CCC3(CC2)O[C@@H]2CC[C@@H](c4ccccc4)N2C3=O)nc1	=	7.03
C#Cc1ccnc(C(=O)N2CCC3(CC2)O[C@@H]2CC[C@@H](c4cc(F)cc(F)c4)N2C3=O)c1	>	7.60
O=C1N2[C@@H](CC[C@H]2c2ccccc2F)OC12CN(c1ccnc(-c3ccc(F)cc3)c1)C2	>	7.60
N#Cc1cnc(N2CCC3(CC2)O[C@@H]2CC[C@@H](c4cccc(F)c4)N2C3=O)c(F)c1	=	7.51
O=C1N2[C@@H](CC[C@H]2c2cc(F)cc(F)c2)OC12CCN(c1nccn3ccnc13)CC2 [Example 13.15, TFA salt]	=	6.73
O=C1N2[C@@H](CC[C@H]2c2cc(F)cc(F)c2)OC12CCN(c1ccc(Cl)c3ncnn13)CC2 [Example 15.4, TFA salt]	>	7.60
CC(C)NC(=O)c1nc(N2CCC3(CC2)O[C@@H]2CC[C@@H](c4cc(F)cc(F)c4)N2C3=O)ncc1F	=	7.16
Cc1occc1C(=O)N1CCC2(CC1)O[C@@H]1CC[C@@H](c3cc(F)cc(F)c3)N1C2=O	>	7.60
